# SUBJECT_OF_TEST: human TMEM16A (TMEM16Aabc variant) (Homo sapiens, UniProt Q5XXA6, DEL476-501, form not given)
# Sequence (Q5XXA6 with tags, fused parts or gaps DEL476-501): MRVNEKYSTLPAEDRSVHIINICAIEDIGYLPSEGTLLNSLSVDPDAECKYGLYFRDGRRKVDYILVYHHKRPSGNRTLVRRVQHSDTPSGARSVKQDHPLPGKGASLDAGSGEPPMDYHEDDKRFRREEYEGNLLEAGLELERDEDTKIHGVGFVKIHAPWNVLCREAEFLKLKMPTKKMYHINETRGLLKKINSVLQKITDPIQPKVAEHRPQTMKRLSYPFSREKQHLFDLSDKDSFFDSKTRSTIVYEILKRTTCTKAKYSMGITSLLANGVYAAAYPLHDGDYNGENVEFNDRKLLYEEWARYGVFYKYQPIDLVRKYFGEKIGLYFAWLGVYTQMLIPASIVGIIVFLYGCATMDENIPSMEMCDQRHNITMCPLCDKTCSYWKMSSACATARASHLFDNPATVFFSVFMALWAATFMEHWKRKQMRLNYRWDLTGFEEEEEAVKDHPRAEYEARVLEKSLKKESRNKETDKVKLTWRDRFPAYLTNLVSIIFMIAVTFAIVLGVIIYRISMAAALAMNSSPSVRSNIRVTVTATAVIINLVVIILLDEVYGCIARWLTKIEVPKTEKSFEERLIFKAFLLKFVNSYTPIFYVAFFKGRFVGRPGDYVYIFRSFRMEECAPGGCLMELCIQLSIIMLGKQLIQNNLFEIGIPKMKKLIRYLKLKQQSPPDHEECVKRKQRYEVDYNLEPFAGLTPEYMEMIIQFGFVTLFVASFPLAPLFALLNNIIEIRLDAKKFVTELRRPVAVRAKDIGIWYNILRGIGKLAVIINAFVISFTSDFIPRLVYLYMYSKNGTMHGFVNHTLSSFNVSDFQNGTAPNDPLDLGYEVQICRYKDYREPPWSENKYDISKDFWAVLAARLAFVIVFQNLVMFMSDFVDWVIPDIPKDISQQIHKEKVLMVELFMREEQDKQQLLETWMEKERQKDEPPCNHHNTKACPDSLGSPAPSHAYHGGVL
# METHOD_DESCRIPTION: Automated whole-cell patch clamp (Qpatch) TMEM16A potentiator assay in FRT cells stably expressing human TMEM16A
# TEST_PARAMETERS: calculated EC50, Qpatch TMEM16A current at +70 mV
pEC50: −log10 of the molar value.
Is pEC50 at least 6? Then YES. If not, NO.

Incoming: Quick check: does CC(C)(C)NC(=O)c1cc(NC(=O)Cc2cc(Cl)c(Br)cc2O)ccn1 have pEC50 greater than or equal to 6?
Outgoing: YES

Incoming: Quick check: does CC(C)(CO)NC(=O)c1cc(NC(=O)Cc2cc(Cl)ccc2O)ccn1 have pEC50 greater than or equal to 6?
Outgoing: YES

Incoming: Quick check: does CC(C)(C)NC(=O)c1cc(NC(=O)Cc2cc(Cl)ccc2O)ncn1 have pEC50 greater than or equal to 6?
Outgoing: YES

Incoming: Quick check: does CC(C)(C)NC(=O)c1cc(NC(=O)Cc2ccccc2Cl)ccn1 have pEC50 greater than or equal to 6?
Outgoing: YES

Incoming: Quick check: does CC(C)(C)NC(=O)c1cc(NC(=O)Cc2cc(Cl)cc(Cl)c2)ccn1 have pEC50 greater than or equal to 6?
Outgoing: NO

Incoming: Quick check: does C#CC(C)(C)NC(=O)c1cc(NC(=O)Cc2ccccc2F)ccn1 have pEC50 greater than or equal to 6?
Outgoing: YES

Incoming: Quick check: does O=C(Cc1cc(Cl)ccc1O)Nc1ccnc(C(=O)N[C@@H]2CCC[C@H]2O)c1 have pEC50 greater than or equal to 6?
Outgoing: YES

Incoming: Quick check: does CC(C)(C)NC(=O)c1cc(NC(=O)Cc2ccc(O)c(Cl)c2)ccn1 have pEC50 greater than or equal to 6?
Outgoing: YES

Incoming: Quick check: does CC(C)(C)NC(=O)c1cc(NC(=O)Cc2ccccc2Br)ccn1 have pEC50 greater than or equal to 6?
Outgoing: YES

Incoming: Quick check: does COc1ccc(Cl)cc1CC(=O)Nc1ccnc(C(=O)NC(C)(C)C)c1 have pEC50 greater than or equal to 6?
Outgoing: NO

Incoming: Quick check: does CC1(NC(=O)c2cccc(NC(=O)Cc3cc(Cl)ccc3O)c2)CCC1 have pEC50 greater than or equal to 6?
Outgoing: YES

Incoming: Quick check: does CC(C)(C)c1ccc(O)c(CC(=O)Nc2ccnc(C(=O)NC34CC(C3)C4)c2)c1 have pEC50 greater than or equal to 6?
Outgoing: YES

Incoming: Quick check: does CC(C)(C)NC(=O)c1cc(NC(=O)Cc2ccc(C(C)(C)C)c(O)c2)ccn1 have pEC50 greater than or equal to 6?
Outgoing: YES

Incoming: Quick check: does CC(C)(C)NC(=O)c1cccc(NC(=O)Cc2n[nH]c3ccccc23)c1 have pEC50 greater than or equal to 6?
Outgoing: NO

Incoming: Quick check: does CCCC(C)(C)NC(=O)c1cccc(NC(=O)Cc2cc(Cl)ccc2O)c1 have pEC50 greater than or equal to 6?
Outgoing: YES

Incoming: Quick check: does CC(C)(O)C(C)(C)NC(=O)c1cc(NC(=O)Cc2cc(Cl)ccc2O)ccn1 have pEC50 greater than or equal to 6?
Outgoing: YES

Incoming: Quick check: does CC(C)(C)NC(=O)c1cc(NC(=O)Cc2ccc(Cl)c(F)c2)ccn1 have pEC50 greater than or equal to 6?
Outgoing: YES
